FYI, the data here is from patent US20220088148A1.

Listed here: items and their measured In vitro activity (%) vs. Glucagon, cAMP EC50.
- Target under test: human GCG receptor (human, UniProt P47871 26-477)
- Sequence (P47871 26-477): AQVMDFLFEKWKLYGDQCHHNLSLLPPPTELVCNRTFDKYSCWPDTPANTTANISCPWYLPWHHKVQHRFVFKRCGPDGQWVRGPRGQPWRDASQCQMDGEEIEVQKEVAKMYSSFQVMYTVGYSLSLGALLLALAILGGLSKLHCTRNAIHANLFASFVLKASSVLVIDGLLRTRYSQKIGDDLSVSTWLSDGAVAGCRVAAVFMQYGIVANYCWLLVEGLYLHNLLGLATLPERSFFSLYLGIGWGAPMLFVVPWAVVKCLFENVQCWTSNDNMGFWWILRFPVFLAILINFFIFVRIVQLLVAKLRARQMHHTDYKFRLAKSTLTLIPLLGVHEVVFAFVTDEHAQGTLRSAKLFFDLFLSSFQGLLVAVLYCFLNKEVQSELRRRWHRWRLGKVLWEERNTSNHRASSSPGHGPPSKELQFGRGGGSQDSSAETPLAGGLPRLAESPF
- Assay name: cell-based or functional assay
Bridges are numbered along the chain shown (N, C = ends). Where no end group is shown, it is not given here. [ ]: non-standard residue; d: D form. The star is where a group is joined. Acetyl(2-(4-imidazolyl)) = O=C(Cc1c[nH]cn1)*; Aib = CC(C)(N)C(=O)O
Observed property: In vitro activity (%) vs. Glucagon, cAMP EC50

- Binder: "Y[Aib]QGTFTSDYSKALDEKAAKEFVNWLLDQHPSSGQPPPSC (bridge 16-20) [triple agonist of SEQ ID NO: 101]"
  Measurement qualifier: "="
  Value: 13.9
- Binder: "H[Aib]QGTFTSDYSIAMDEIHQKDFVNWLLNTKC (bridge 16-20) [triple agonist of SEQ ID NO: 35]"
  Measurement qualifier: "<"
  Value: 0.1
- Binder: "H[Aib]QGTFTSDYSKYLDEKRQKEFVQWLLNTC (bridge 16-20; ends not checked) [triple agonist of SEQ ID NO: 51]"
  Measurement qualifier: "="
  Value: 2
- Binder: "[Acetyl(2-(4-imidazolyl))]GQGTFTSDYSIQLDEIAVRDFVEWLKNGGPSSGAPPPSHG [triple agonist of SEQ ID NO: 14]"
  Measurement qualifier: "<"
  Value: 0.1
- Binder: "H[Aib]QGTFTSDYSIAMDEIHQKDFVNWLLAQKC (bridge 16-20) [triple agonist of SEQ ID NO: 33]"
  Measurement qualifier: "<"
  Value: 0.1
